# assay-explanation: Acute toxicity in the mouse, Weil method
# test-context: in vivo, ip
compounds and their reported LD50
quantity: LD50 (mg/kg)

CC(C)OC(=O)CC(C[N+](C)(C)C)OC(=O)CS (stereo not drawn)	250
CC(C)COC(=O)CC(C[N+](C)(C)C)OC(=O)CCCS (stereo not drawn)	231
CCOC(=O)CC(C[N+](C)(C)C)OC(=O)CCS (stereo not drawn)	228
CC(C)COC(=O)CC(C[N+](C)(C)C)OC(=O)C(C)S (stereo not drawn)	274
CCC(S)C(=O)OC(CC(=O)OCC(C)C)C[N+](C)(C)C (stereo not drawn)	236
COC(=O)CC(C[N+](C)(C)C)OC(=O)CCCCS (stereo not drawn)	219
